# Binding affinity (RU) listing for each entry below
Biological target: acetylcholine receptor
Experiment: SPR, receptor immobilised on chip, peptide at 10 uM
Report as a plain number; the unit RU is understood.

Field: example entries. Status: answers known.
In [3]: df
Out[3]:
                binder  resultunit  valuereported
0  KFCWRR [6mer-2-956]          RU             28
1  KPDVRK [6mer-2-902]          RU             26
2  RTSNKK [6mer-2-967]          RU             35

Proceeding to the next binder to report its Binding affinity (RU).
Asked: For the binder RPTVKR [6mer-2-926] , give its measured Binding affinity (RU) value.
Given back: 31

Cited source: patent US20250011363A1
